# target-system: T1, biotinylated recombinant mouse IL-12Rβ2 (mouse, UniProt P97378 24-637, random biotinylated)
# T1 construct: Recombinant protein produced in-house; also called mIL-12RB2; mouse IL-12RB2
# T1 sequence: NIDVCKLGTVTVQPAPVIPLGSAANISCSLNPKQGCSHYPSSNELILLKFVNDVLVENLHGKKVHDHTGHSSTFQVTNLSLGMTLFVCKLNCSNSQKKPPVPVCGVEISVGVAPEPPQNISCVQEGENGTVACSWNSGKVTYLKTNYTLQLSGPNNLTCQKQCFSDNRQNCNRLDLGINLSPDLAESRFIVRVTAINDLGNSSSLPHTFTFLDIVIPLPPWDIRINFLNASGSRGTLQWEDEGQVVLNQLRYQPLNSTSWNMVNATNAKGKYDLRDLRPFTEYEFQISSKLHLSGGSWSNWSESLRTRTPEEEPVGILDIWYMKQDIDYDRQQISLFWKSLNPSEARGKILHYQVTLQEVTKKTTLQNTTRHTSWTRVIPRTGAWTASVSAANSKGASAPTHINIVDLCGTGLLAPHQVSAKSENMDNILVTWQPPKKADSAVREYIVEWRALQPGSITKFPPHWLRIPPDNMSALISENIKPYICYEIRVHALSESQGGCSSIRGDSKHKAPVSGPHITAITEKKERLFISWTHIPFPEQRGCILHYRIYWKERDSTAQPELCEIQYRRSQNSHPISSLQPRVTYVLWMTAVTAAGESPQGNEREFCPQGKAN
# experiment-summary: ELISA, P.E., biotinylated antigen
measured-property: ELISA mIL-12RB2/control
Quick one: just the number, no unit, thanks!

input: Which ELISA mIL-12RB2/control value is on record for anti-IL-12Rβ2 VHH clone 3CRHS1 (clone ID 20412) (VHH, not shown: small tags and cut ends, periplasmic extract) VHH: QVQLQESGGGSVQPGGSLRLSCAASGFTFSTSGMHWFRQAPGKGLEWVSSIGIIVDSSYYASSVKGRFTISRDNAKNTLYLQMNSLKSEDTAVYYCSKDPTGSSRGQGTQVTVSS ?
output: 1.01

input: Which ELISA mIL-12RB2/control value is on record for anti-IL-12Rβ2 VHH clone 2CRH10 (clone ID 20362) (VHH, not shown: small tags and cut ends, periplasmic extract) VHH: QVQLQESGGGLVQAGGSLVLSCAASGSAALIFLMSWYRQAPGKQRELVAEVSRGGSTTYADSVEGRFHISRDNAKNIVDLQMNSLKPEDTAVYYCKADQNYGDSLRSSWGRGTQVTVSS ?
output: 0.886

input: Which ELISA mIL-12RB2/control value is on record for anti-IL-12Rβ2 VHH clone 2CRH73 (clone ID 20369) (VHH, not shown: small tags and cut ends, periplasmic extract) VHH: QVQLQESGGGLVQAGGSLRLTCTASGSAALIFLMSWYRQAPGKQRELVAEVSRRGSTTYADSVEGRFTISRDNAKNIVDLQMNSLKPEDTAVYYCKADQYYGDSLRSSWGRGTQVTVSS ?
output: 0.606

input: Which ELISA mIL-12RB2/control value is on record for anti-IL-12Rβ2 VHH clone 3CAH28 (clone ID 20356) (VHH, not shown: small tags and cut ends, periplasmic extract) VHH: QVQLQESGGGLVQSGASLRLSCAASERTLSGYAMGWFRQAPGKEREFVAAIRWSGSSTYYAESVEGRFTISRDNAKNTVYLQMNILKPEDTAVYYCAAGSDYADEYDYWGQGTQVTVSS ?
output: 0.4

input: Which ELISA mIL-12RB2/control value is on record for anti-IL-12Rβ2 VHH clone 3CAHS52 (clone ID 20396) (VHH, not shown: small tags and cut ends, periplasmic extract) VHH: QVQLQESGGGSVQAGGSLRLSCAASGRTINAYIMGWFRQAPGKEREFVAAVSGSGGSTYYADSVKGRFTISRDNAKNTVNLQMDNLRSEDTDVYYCAATYESVYLQNPGQYDYWGQGTQVTVSS ?
output: 1.22
